Reference for the values: the RNAGym collection of RNA variant scans (doi:10.1073/pnas.2313332121)

Can you tell me polymerase ribozyme fitness (log ratio) for the items I'm about to list?
B1: TPR t1 (parent)
chain: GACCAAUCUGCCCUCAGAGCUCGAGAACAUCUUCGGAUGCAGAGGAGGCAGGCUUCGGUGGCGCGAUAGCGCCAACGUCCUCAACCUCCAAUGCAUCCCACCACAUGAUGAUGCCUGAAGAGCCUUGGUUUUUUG

Variants of: B1
Assay: polymerase ribozyme fitness, log enrichment relative to wild type (log ratio); higher = more active; in vitro selection for triplet polymerase activity
Lab note: jot down the number only; don't add units.

[Q] # input variant: C13G C40U C49A C64A A100C C115U ; wanted: its polymerase ribozyme fitness (log ratio)
[A] -6.9

[Q] Now try C56A C104U U106A U109A .
[A] -5.35

[Q] Now try C88A .
[A] -0.325

[Q] Now try G52C C72A C94U G128A .
[A] -2.33

[Q] Now try C8U U78G C98U .
[A] -0.651

[Q] Now try A91C C114U G127A .
[A] -4.1

[Q] Now try C40A U106A C124A .
[A] 1.38

[Q] Now try C13G G113A A118C .
[A] -4.34

[Q] Now try C8G G48C A90U U112A .
[A] 0.378

[Q] Now try C62G A83U U96A .
[A] -4.56

[Q] Now try C13A G47A C64U G93U C101G U131A .
[A] -5.14

[Q] Now try A37U C88U C101G C115G .
[A] -3.98

[Q] Now try C40G A41U G45U .
[A] -5.41

[Q] Now try C12U C49U G77A C97A C98A U109A A119U G127C .
[A] -6.68

[Q] Now try C40U C49A C72G A74U C94U G117C .
[A] -6.96

[Q] Now try C82U U112A U130G .
[A] 0.499

[Q] Now try U33G G39U A50U C70U A84U A91C C114A .
[A] -7.12

[Q] Now try G10A C40A C72A A111C .
[A] -1.19

[Q] Now try G51A C53G .
[A] -2.12

[Q] Now try C56U C62G .
[A] -5.27

[Q] Now try C72A C82A .
[A] 0.281

[Q] Now try C79G C89A G127U .
[A] -4.91

[Q] Now try C11G C40A .
[A] -1.54

[Q] Now try G71U G135C .
[A] 0.388

[Q] Now try A6G A50C C70G .
[A] -3

[Q] Now try C53G C123U .
[A] 0.236

[Q] Now try C98A U112G .
[A] -5.66

[Q] Now try C76U A111U .
[A] -3.86

[Q] Now try C49U G57U C79U C101A G128U .
[A] -4.04

[Q] Now try C13G A83C C94G A119U C123G G127C G135U .
[A] -3.17

[Q] Now try A18C C86G .
[A] -3.25

[Q] Now try G44C C76U U81G .
[A] -5.45

[Q] Now try A46U G110A .
[A] -2.4

[Q] Now try C70U U78A A95U U112G .
[A] -2.17

[Q] Now try A27G C53G .
[A] -1.84

[Q] Now try G47U U54A G120A .
[A] -0.309

[Q] Now try C11U U109G .
[A] -5.84

[Q] Now try C72A A108U .
[A] -5.64

[Q] Now try A2G G52U G69C C86U .
[A] -1.64

[Q] Now try U38C G71C C82A A83U A90G .
[A] -2.39

[Q] Now try C4U G52A C114A .
[A] -2.66

[Q] Now try G107U C114U .
[A] -3.8

[Q] Now try A18C C56U U132A .
[A] -2.9

[Q] Now try A2G G48U C80U U130C .
[A] -2.35

[Q] Now try C56U G57C G69C .
[A] -0.611

[Q] Now try C88A C101U .
[A] -0.505
